Listed below: log10 Ki values for each entry.
TESTED_TARGET: UniProtKB P34969
Sequence (P34969 whole entry): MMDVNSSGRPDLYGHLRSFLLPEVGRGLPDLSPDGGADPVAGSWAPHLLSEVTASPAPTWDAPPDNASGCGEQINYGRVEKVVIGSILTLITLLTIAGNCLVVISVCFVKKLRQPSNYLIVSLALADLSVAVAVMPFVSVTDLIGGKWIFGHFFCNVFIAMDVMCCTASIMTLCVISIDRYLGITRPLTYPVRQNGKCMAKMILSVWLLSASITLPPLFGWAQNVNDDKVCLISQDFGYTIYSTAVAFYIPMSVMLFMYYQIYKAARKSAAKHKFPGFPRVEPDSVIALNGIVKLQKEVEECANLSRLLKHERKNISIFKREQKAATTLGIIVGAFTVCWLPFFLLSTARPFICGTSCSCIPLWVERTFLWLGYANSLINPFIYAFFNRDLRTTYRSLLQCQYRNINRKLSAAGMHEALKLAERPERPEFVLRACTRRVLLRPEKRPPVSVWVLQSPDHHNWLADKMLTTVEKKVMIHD
EXPERIMENTAL_PROTOCOL: Displacement of [3H]LSD from human recombinant 5HT7 receptor expressed in CHO cells
Format: cell-based
CONDITION: read-out: Ki
The base-10 logarithm of Ki, taken with Ki in nM, is what appears here.

MOLECULE	log10 Ki
CCC1(CCCCCN2CCN(c3ccc(Cl)cc3)CC2)C(=O)Nc2ccccc21 (stereo unspecified)	0.09
CCC1(CCCCN2CCN(c3cccc(Cl)c3)CC2)C(=O)Nc2ccccc21 (stereo unspecified)	-0.39

Kindly consider the entry below.
Enquiry: Input CCC1(CCCCN2CCN(c3ccc(F)cc3)CC2)C(=O)Nc2ccccc21 (stereo unspecified) , output reported log10 Ki.
Return: -0.37
